Data origin: patent US20260092093A1

Measured On: T1, recombinant hIL-18Rα extracellular domain (human, UniProt Q13478 22-329, biotin label (selection) or fluorescent probe (single-clone FACS), sites not given)
T1 construct: extracellular domain; also called hIL-18Rα ECD; hIL-18Rα-ECD
T1 sequence (looked up): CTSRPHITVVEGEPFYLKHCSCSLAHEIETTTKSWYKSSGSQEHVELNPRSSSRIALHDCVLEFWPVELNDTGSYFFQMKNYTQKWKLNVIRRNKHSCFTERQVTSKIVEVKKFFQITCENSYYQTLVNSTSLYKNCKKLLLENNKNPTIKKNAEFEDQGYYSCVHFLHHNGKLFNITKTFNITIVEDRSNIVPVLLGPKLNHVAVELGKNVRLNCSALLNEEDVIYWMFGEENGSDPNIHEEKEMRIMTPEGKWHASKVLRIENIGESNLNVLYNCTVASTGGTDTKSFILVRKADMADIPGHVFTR
Assay Protocol: single-clone FACS, yeast display, 10 nM labelled hIL-18Rα ECD
# reported % of fluorescence positive cells; entries follow
// return numeric value only (unit: %, not printed)

# Binder, % of fluorescence positive cells [%]
measured = [
    ("IL-18 variant polypeptide M30 (ligand) YFPKLLSKLSVIRNLNDQVLFIDQGNRPLFEDMTDSDCRDNAPRTIFIISMYKHSTVRGMAVTISVKCEKISTLSCENKIISFKEMNPPDSIKDTKSDIIFFQRSVPGHDNKMQFESSSYEGYFLACEKERDLFKLILKKEDELGDRSIMFTVQNED", 0.46),
]

So what does the record say about % of fluorescence positive cells for IL-18 variant polypeptide M40 (ligand) YFDKLKSKLSVIRNLNDQVLFIDQGNRPLFEDMTDSDCRDNAPRTIFIISMYKPSSWRGMAVTISVKCEKISTLSCENKIISFKEMNPPDWIKDTKSDIIFFQRSVPGHDNKMQFESSSYEGYFLACEKERDLFKLILKKEDELGDRSIMFTVQNED ?
39.6

Repeat with IL-18 variant polypeptide M25 (ligand) YFPKLRSKLSVIRNLNDQVLFIDQGNRPLFEDMTDSDCRDNAPRTIFIISMYKLSTTRGMAVTISVKCEKISTLSCENKIISFKEMNPPDRIKDTKSDIIFFQRSVPGHDNKMQFESSSYEGYFLACEKERDLFKLILKKEDELGDRSIMFTVQNED
1.41

Repeat with SEQ ID NO 60 (ligand) YFPKLKSKLSVIRNLNDQVLFIDQGNRPLFEDMTDSDCRDNAPRTIFIISMYKHSSTRGMAVTISVKCEKISTLSCENKIISFKEMNPPDVIKDTKSDIIFFQCSVPGHDNKMQFESSSYEGYFLACEKERDLFKLILKKEDELGDRSIMFTVQNED
76.5

Repeat with SEQ ID NO 19 (ligand) YFPKLRSKLSVIRNLNDQVLFIDQGNRPLFEDMTDSDCRDNAPRTIFIISMYKWSYPRGMAVTISVKCEKISTLSCENKIISFKEMNPPDSIKDTKSDIIFFQSSVPGHDNKMQFESSSYEGYFLACEKERDLFKLILKKEDELGDRSIMFTVQNED
97.9

Repeat with IL-18 variant polypeptide M6 (ligand) YFPKLRSKLSVIRNLNDQVLFIDQGNRPLFEDMTDSDCRDNAPRTIFIISMYKWSTPRGMAVTISVKCEKISTLSCENKIISFKEMNPPDVIKDTKSDIIFFQTSVPGHDNKMQFESSSYEGYFLACEKERDLFKLILKKEDELGDRSIMFTVQNED
79

Repeat with SEQ ID NO 57 (ligand) YFPKLKSKLSVIRNLNDQVLFIDQGNRPLFEDMTDSDCRDNAPRTIFIISMYKHSRARGMAVTISVKCEKISTLSCENKIISFKEMNPPDSIKDTKSDIIFFQTSVPGHDNKMQFESSSYEGYFLACEKERDLFKLILKKEDELGDRSIMFTVQNED
79
